Where these numbers come from: PubChem BioAssay AID2216

test system: Ran GTPase (GTP-bound) - importin-beta complex; assay: disruptors of Ran-importin-beta complex formation – biochemical, FRET, CFP-Ran, YFP-importin-beta, homogeneous, primary screen (AID 2216); details: cell-free CFP-Ran/YFP-importin-beta FRET ratio; hits give high values; concentration not given here;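 note: 0% = DMSO wells and 100% = Ran loaded with GDP instead of GTP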
The whole screen tested about 300,000 compounds, of which about 3,300 (1.1%) were called active. Inconclusive results (about 6%) are left out. The entries come from a sample that favours actives as a whole.
Assignment: determine reported inhibition for the given compounds.

Consider the following illustrative entries.
>>> assay_result("CCN1CC=C2C(C#N)=C(N)C(C#N)(C#N)[C@H](c3ccoc3)[C@H]2C1")
"47.8% (active)"
>>> assay_result("Cc1ccc2[nH]c3c(c2c1)CN(C(=O)CN1CCN(c2ccccc2)CC1)CC3")
"-23.4% (inactive)"
>>> assay_result("O=C(Nc1ccc(C(=O)N2CCOCC2)cc1)Nc1cccc(C(F)(F)F)c1")
"-2.36% (inactive)"
>>> assay_result("CCOC(=O)C1(Cc2cccc(OC)c2)CCN(Cc2csc(C(C)=O)c2)CC1")
"33.4% (active)"
>>> assay_result("COC(=O)c1ccc(S(=O)(=O)NCc2ccccc2)n1C")
"-3.7% (inactive)"
>>> assay_result("C=CCNC(=S)N1CCc2[nH]c3ccccc3c2C1")
"3.44% (inactive)"
>>> assay_result("CCOc1ccc(NC(=O)CN(C)C(=O)COc2cccc(CC)c2)cc1OCC")
"-1.27% (inactive)"
>>> assay_result("N#CC1=C(N)C(C#N)(C#N)[C@H](c2ccsc2)[C@H]2COCC=C12")
"-27% (inactive)"

Take each entry in turn and give its inhibition.
1. CCC1(c2ccccc2)NC(=O)N(CC(=O)c2ccc3c(c2)OCO3)C1=O (configuration not stated)
2. CCCCNC(=O)CCNC(=O)c1ccc(C(C)(C)C)cc1

Response:
["1.92% (inactive)", "3.77% (inactive)"]

Take each entry in turn and give its inhibition.
1. CC12CCC(=O)N1C(C(=O)NCCN1C(=O)S/C(=C\c3ccccc3F)C1=O)CS2 (configuration not stated)
2. CC(C)(C)c1ccc(C(=O)NCCn2c(N)c(C#N)c3nc4ccccc4nc32)cc1
3. O=C(COC(=O)CNS(=O)(=O)c1ccc(F)c(F)c1F)NC1CCCC1
4. Cc1ccc(C)c(-c2nnc(NC(=O)CS(=O)(=O)c3ccccc3)o2)c1
5. CC(C)(C)c1ccc(C(=O)NCCC(=O)NCc2ccco2)cc1
6. O=C(CSc1ccccn1)N1CCN(S(=O)(=O)c2ccc(Cl)cc2)CC1
7. Cc1cc(C)c(-c2c(O)c3ccccc3n(C)c2=O)c(C)c1

Response:
1. 6.01% (inactive)
2. 82.8% (active)
3. -1.07% (inactive)
4. -0.829% (inactive)
5. 1.67% (inactive)
6. -1.48% (inactive)
7. -1.11% (inactive)

Take each entry in turn and give its inhibition.
1. Cn1c(=O)c(Sc2ccc(Cl)cc2)c(O)c2ccccc21
2. COc1ccccc1NS(=O)(=O)c1ccc(C(=O)N2CCN(c3ccccc3O)CC2)cc1
3. CCOC(=O)C1(Cc2cccc(OC)c2)CCN(C(C)CC(C)(C)O)CC1 (configuration not stated)
4. CCOc1ccc(C(=O)CCN2CCOCC2)cc1

Response:
-0.611% (inactive)
1.18% (inactive)
2.47% (inactive)
4.03% (inactive)

Record CCC(C(=O)N1CCOCC1)n1c(C(=O)OC)cc2occc21 (configuration not stated) , field inhibition: -3.41% (inactive)

====

Assignment: determine reported inhibition for the given compounds.
system: Ran GTPase (GTP-bound) - importin-beta complex; assay: disruptors of Ran-importin-beta complex formation – biochemical, FRET, CFP-Ran, YFP-importin-beta, homogeneous, primary screen (AID 2216); conditions: cell-free CFP-Ran/YFP-importin-beta FRET ratio; hits give high values; concentration not given here;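 note: 0% = DMSO wells and 100% = Ran loaded with GDP instead of GTP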
Out of some 300,000 compounds screened, about 3,300 (1.1%) were called active. About 6% were inconclusive and are not listed. This excerpt belongs to a sample that is enriched for actives.
One number for each entry, in %.

Consider the following illustrative entries.
>>> assay_result("CCOc1ccc(NC(=O)COc2ccc(C(=O)N3CCC(C(N)=O)CC3)cc2OC)cc1")
1.65
>>> assay_result("COc1ccc(-n2cnc3cc(C(=O)NC4CCCC4)ccc32)cc1")
-1.26
>>> assay_result("CCCCc1nc2cc(C(=O)N3CCCCC3CCO)ccc2o1 (stereo unspecified)")
2.55
>>> assay_result("CSc1nsc(NC(=O)Nc2ccccc2)n1")
1.6
>>> assay_result("COC(C/C=C/C(=O)[C@@H](C)OCc1ccccc1)OC")
-3.23

Take each entry in turn and give its inhibition.
1. Cn1c(SCC(=O)c2ccc(F)cc2)nnc1-c1ccccn1
2. COc1ccc(-n2cnc3cc(NCc4ccco4)ccc32)cc1
3. CC(C)c1ccc(S(=O)(=O)N2CCN(C(=O)CN3C(=O)NC(C)(c4ccccc4)C3=O)CC2)cc1 (stereo unspecified)
4. Cn1c2ccccc2n2c(=O)c(=O)n(CC(=O)c3ccc(F)cc3)nc12

Response:
1. 8.68
2. 23
3. 0.837
4. 23.2

Take each entry in turn and give its inhibition.
1. COc1ccc(Nc2nc(NCc3ccco3)nc(N/N=C/c3ccccc3Cl)n2)cc1
2. CCCCn1c(N)c(N(CC(C)C)C(=O)CN(C)S(=O)(=O)c2ccc(F)cc2)c(=O)[nH]c1=O

Response:
-0.0694
6.85

====

test system: Ran GTPase (GTP-bound) - importin-beta complex; test: disruptors of Ran-importin-beta complex formation – biochemical, FRET, CFP-Ran, YFP-importin-beta, homogeneous, primary screen (AID 2216); conditions: cell-free CFP-Ran/YFP-importin-beta FRET ratio; concentration not given here;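 note: 0% = DMSO wells and 100% = Ran loaded with GDP instead of GTP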
In all, about 300,000 compounds went through this assay and about 3,300 (1.1%) were called active. Inconclusive results (about 6%) are left out.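 Rule for the calls: active = more than half of the replicate wells show a fall in the fluorescence ratio signal beyond about 16% (limit read from the data, passing the limit was not always enough); inconclusive = exactly half of the replicate wells pass the set limit; inactive = fewer than half of replicates pass the limit.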 What follows is part of a selection rich in actives, with near analogues and random picks from the rest.
Log the outcome using a class from active, inactive

Reference set, count: 5
>>> assigned_label("CCOC(=O)/C(C#N)=C/c1ccc(N2CCN(Cc3ccccc3)CC2)cc1")
"active"
>>> assigned_label("CC(OC(=O)CNC(=O)c1cccc(F)c1)C(=O)NC1CCCCC1C (stereo unspecified)")
"active"
>>> assigned_label("COc1ccc(/C=C(\\C#N)C(=O)ONC2=NCCCCC2)cc1")
"inactive"
>>> assigned_label("CCOC(=O)NC(=O)/C(C#N)=C\\c1ccccc1")
"inactive"
>>> assigned_label("COc1ccc(N2CCN(C(=O)/C(C#N)=C/c3ccccc3)CC2)cc1")
"inactive"

Prompt: Identify the outcome logged in this assay for the molecule shown: "CCOC(=O)/C(C#N)=C/c1ccc(N2CCCCC2)cc1"
Response: active

====

Assignment: determine reported inhibition for the given molecules.
system: Ran GTPase (GTP-bound) - importin-beta complex; assay: disruptors of Ran-importin-beta complex formation – biochemical, FRET, CFP-Ran, YFP-importin-beta, homogeneous, primary screen (AID 2216); details: cell-free CFP-Ran/YFP-importin-beta FRET ratio; hits give high values; concentration not given here;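 note: 0% = DMSO wells and 100% = Ran loaded with GDP instead of GTP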
The whole screen tested about 300,000 compounds, of which about 3,300 (1.1%) were called active. About 6% were inconclusive and are not listed. This is one part of a sample in which actives are shown more often than they occur.
Answers are plain numbers, in %.

>>> assay_result("CCOc1ccccc1C1C(C(=O)OC)=CN(C)C=C1C(=O)OC")
118

Take each entry in turn and give its inhibition.
1. Cc1onc(-c2c(F)cccc2Cl)c1C(=O)N(C)CC(=O)Nc1cccc(F)c1
2. COC(=O)C1=CN(C)C=C(C(=O)OC)C1c1ccc(Cl)cc1Cl

Response:
0.755
2.63

Take each entry in turn and give its inhibition.
1. COc1ccccc1N1N=C(c2cccs2)CC1c1ccccc1 (centres undefined)
2. COc1ccc(/C=C(\C#N)C(=O)OCC(=O)N(C)C2CCS(=O)(=O)C2)cc1 (centres undefined)

Response:
[-0.43, 1.11]

Take each entry in turn and give its inhibition.
1. COc1ccc2oc(C(=O)N(CC(C)C)C3CCS(=O)(=O)C3)c(C)c2c1 (centres undefined)
2. COc1cccc(C(=O)c2cc3ccc(O)cc3oc2=O)c1
3. COc1ccc(C2CC(c3cccs3)=NN2C(=O)CCC(=O)O)cc1OC (centres undefined)
4. Cc1cccn2c(=O)nc(SCC(=O)NCc3ccccc3Cl)nc12
5. CCN1C(=O)[C@H]2[C@@H](c3ccc(SC4CCCCC4)c(OC)c3)N[C@@](Cc3ccccc3)(C(=O)OC)[C@H]2C1=O
6. O=C(Nc1cc(S(=O)(=O)N2CCOCC2)ccc1OCC(F)(F)F)c1ccc(N2CCCC2=O)cc1
7. CCOC(=O)c1cc2c(=O)n3ccccc3nc2n(CC(C)C)c1=NC(=O)c1c(-c2c(F)cccc2Cl)noc1C

Response:
1. -2.12
2. 26.4
3. -4.44
4. -2.28
5. -1.26
6. 5.96
7. 94.5

Take each entry in turn and give its inhibition.
1. O=C(NCCCN1CCCC1=O)c1ccc(S(=O)(=O)Nc2ccccc2)cc1
2. C/C(=N/OC(=O)c1c(-c2c(F)cccc2Cl)noc1C)c1cnccn1
3. COc1ccc(C2CC(c3cccs3)=NN2c2ccccc2)cc1 (centres undefined)
4. CC(=O)NCC(=O)N1CCC(n2nccc2NC(=O)CCCc2ccccc2)CC1
5. O=C(CCNC(=O)c1ccc(Br)cc1)NCCCc1ccccc1
6. CCOc1ccccc1N(CC(=O)Nc1ccccc1C(=O)OC)S(C)(=O)=O

Response:
-2.45
-0.76
2.04
-2.9
1.56
2.19

Record "COc1cccc(C(=O)NNC(=O)c2cccc(F)c2)c1" , field inhibition: -3.67
